Test system: cell line Hela
Assay: MTT proliferation inhibition, Hela
Type: cell-based
Conditions: 48 h
Method: Human leukemia cell line K562, clear-cell ovarian carcinoma cell line ES-2, human prostate cancer cell line PC-3, human breast cancer cell line MCF-7, cell line Hela, human liver cancer cell line H7402 and human ovarian cancer cell line 3-AO were transferred into a culture flask and were cultured in a medium at 37° C. in a 5% CO2 and saturation humidity. […]
Value kind: EC50 (µM)
Record the value in µM, omitting the unit from your answer.

Query: Fill in: EC50 of CC(C)C[C@H](NC(=O)[C@@H](O)[C@H](N)Cc1ccccc1)C(=O)OCn1cc(F)c(=O)[nH]c1=O.Cl [BC-01, hydrochloride] is ___
Response: 0.73

All figures here come from patent US9861703B2.
